Please go through the items and note down their IC50.
Tested on: DLD1 reporter
Assay text: reporter assay (DLD1 reporter assay)
Assay type: cell-based
Measurement setup: read-out: DLD1 4% Abs IC50; DLD1 4%

Entry CC(=O)N1CCC[C@]12CC=CCCCC1(CCCC=CCCCOC(=O)N3CC[C@@]4(C3)NC(=O)[C@H](CCCCN(C(C)C)C(=O)CCC[C@@H](C(=O)N[C@@H](C)C(N)=O)NC(=O)[C@H](Cc3csc5ccccc35)NC(=O)[C@H](Cc3ccsc3)NC4=O)NC(=O)[C@H](Cc3ccccc3)NC(=O)[C@H](C)NC(=O)[C@H](C)NC(=O)[C@H](Cc3cccc(C(=O)O)c3)NC(=O)[C@H](CC(=O)O)NC1=O)NC(=O)[C@H](CC(C)(C)C)NC(=O)[C@H](CC(=O)O)NC2=O (relative stereo) ; IC50 = > 5 µM

For record CC(=O)N1CCC[C@]12CC=CCCCC1(CCCC=CCCCOC(=O)N3CC[C@@]4(C3)NC(=O)[C@H](CCCCNC(=O)CC[C@@H](C(=O)N[C@@H](C)C(N)=O)NC(=O)[C@H](Cc3csc5ccccc35)NC(=O)[C@H](Cc3ccccc3C(F)(F)F)NC4=O)NC(=O)[C@H](Cc3ccccc3)NC(=O)[C@H](C)NC(=O)C(C)(C)NC(=O)[C@H](Cc3cccc(C(=O)O)c3)NC(=O)[C@H](CCC(=O)O)NC1=O)NC(=O)[C@H](CC(C)(C)C)NC(=O)[C@H](CCC(=O)O)NC2=O (relative stereo) the listed IC50 is 1 to 5 µM

// IC50 value for CC(=O)N1CCC[C@]12CC=CCCCC1(CCCC=CCCCOC(=O)N3CC[C@@]4(C3)NC(=O)[C@H](CCCCNC(=O)CC[C@@H](C(=O)NC(C)(C)C(N)=O)NC(=O)[C@H](Cc3csc5ccccc35)NC(=O)[C@H](Cc3ccccc3C(F)(F)F)NC4=O)NC(=O)[C@H](Cc3ccccc3)NC(=O)[C@H](C)NC(=O)[C@H](C)NC(=O)[C@H](CN(CC(=O)O)CC(F)(F)F)NC(=O)[C@H](CC(=O)O)NC1=O)NC(=O)[C@H](CC(C)(C)C)NC(=O)[C@H](CC(=O)O)NC2=O (single isomer, unassigned) [I-126] : 1 to 5 µM

// field: IC50; key: CC(=O)N1CCC[C@]12CC=CCCCC1(CCCC=CCCCOC(=O)N3CC[C@@]4(C3)NC(=O)[C@H](CCCCNC(=O)CC[C@@H](C(=O)N3CCC[C@H]3CO)NC(=O)[C@H](Cc3csc5ccccc35)NC(=O)[C@H](Cc3ccsc3)NC4=O)NC(=O)[C@H](Cc3ccccc3)NC(=O)[C@H](C)NC(=O)[C@H](C)NC(=O)[C@H](Cc3cccc(C(=O)O)c3)NC(=O)[C@H](CC(=O)O)NC1=O)NC(=O)[C@H](CC(C)(C)C)NC(=O)[C@H](CC(=O)O)NC2=O (relative stereo) ; value = 1 to 5 µM
